system: VvelCSP4; assay: Fluorescence competitive binding assay (1-NPN probe) with VvelCSP4; set-up: species or system Vespa velutina auraria; conditions: VvelCSP4, chemical 8 μM
valueKind: Raw fluorescence intensity
Lab note: jot the number down without any unit.

Example entries begin here.
{"columns": ["smiles", "Raw fluorescence intensity"],
 "data": [
  ["CCCCCCCCCCCCCCCCCCCC", 133.35],
  ["CCCCCCCCCCCCCCCCCCCCCCCCCCC", 130.60],
  ["CCCCCCCCCCCCCCCCCCCCCCCC", 132.96]
]}

Provide Raw fluorescence intensity value for the following compound: CCCCCCCCCCCCCCCCCCCCCCCCC
111.74

Fill in reported Raw fluorescence intensity for this entry: CCCCCCCCCCCCCCCCCCCCCC
102.51

Return the recorded Raw fluorescence intensity value; entry: CCCCCCCCCCCCCCCCCCC
144.81

# return recorded Raw fluorescence intensity for input CCCCCCCCCCCCCCCCCCCCCCCCCCCC
162.14

* * *

molecular target: VvelCSP1 (Vespa velutina auraria); assay: Fluorescence competitive binding assay (1-NPN probe) with VvelCSP1; details: VvelCSP1 2 μM, 1-NPN 1 μM, Tris-HCl pH 7.5, single experiment; read-out: IC50 (ligand concentration displacing 50% of the fluorescence intensity of the CSPs/NPN complex)
valueKind: pIC50
The quantity pIC50 is defined as the negative base-10 logarithm of the molar concentration.

Identify measured pIC50 corresponding to CCCCCCCCCCCCCCCCCCC [Nanadecane]
4.74

* * *

system: VvelCSP4; assay: Fluorescence competitive binding assay (1-NPN probe) with VvelCSP4; design: species or system Vespa velutina auraria; details: VvelCSP4, chemical 4 μM
Here the recorded Raw fluorescence intensity is given for each entry.
Output spec: single numeric token, no unit.

Examples with answers:
{"columns": ["smiles", "reportedValue"],
 "data": [
  ["CCCCCCCCCCCCCCCCCCCCCCCCC", 139.39],
  ["CCCCCCCCCCCCCCCCCCCCCCCCCCCCC", 164.16],
  ["CCCCCCCCCCCCCCCCCCCCCC", 127.80],
  ["CCCCCCCCCCCCCCCCCCCCCCCC", 160.59],
  ["CCCCCCCCCCCCCCCCCCCC", 154.96]
]}

Using known records, supply Raw fluorescence intensity for CCCCCCCCCCCCCCCCCCCCCCCCCC
169.19

* * *

test system: VvelCSP4; assay: Fluorescence competitive binding assay (1-NPN probe) with VvelCSP4; design: species or system Vespa velutina auraria; details: VvelCSP4, chemical 1 μM
Entries and their Raw fluorescence intensity

{"columns": ["smiles", "Raw fluorescence intensity"],
 "data": [
  ["CCCCCCCCCCCCCCCCCCCCCCCCCCCCC", 196.97],
  ["CCCCCCCCCCCCCCCCCCCCCCCC", 198.86],
  ["CCCCCCCCCCCCCCCCCCCCC", 226.44],
  ["CCCCCCCCCCCCCCCCCCCCCCCCC", 182.28],
  ["CCCCCCCCCCCCCCCCCCCCCCCCCCC", 194.71]
]}

Could you please provide reported Raw fluorescence intensity for CCCCCCCCCCCCCCCCCCCC ? Thanks!
182.38

* * *

molecular target: VvelCSP1 (Vespa velutina auraria, UniProt A0A384ZVP9); assay: Fluorescence competitive binding assay (1-NPN probe) with VvelCSP1; conditions: VvelCSP1; derived from IC50; read-out: Ki (dissociation constant)
Sequence (A0A384ZVP9 entry or part of it): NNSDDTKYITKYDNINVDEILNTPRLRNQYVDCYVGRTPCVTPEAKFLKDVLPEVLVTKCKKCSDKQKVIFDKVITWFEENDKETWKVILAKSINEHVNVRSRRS
valueKind: Ki (µM)
Give the value in µM but do not write µM after it.

State its Ki: CCCCCCCCCCCCCCCCCCC [Nanadecane]
14.5
